# procedure.details: label from the status in PepcDB records
assay.metric: protein production

Observe how each entry below is paired with its result.
MEYFLENPDHLWYLIAGISFVIELSIMGLSGPLLFFAIASLTTGILVTVGFVEGWQSEIFTVGVLTAIIAAILWKPLKSLQNSKDTTDNSSDMVGLTVLASTEINVSSGSIRYSGIDWQARLAEEANGESISAQSQCVIVAITGNIMLVKSL : failed
MGIIAWIVFGFVIGLIARAVVPGKQSLGFVMTTLLGIAGSLIGGLVASAFAGTSGTTFQTAGFIGSLVGAIVLLVIAGMVTTPRRRTV : failed
MSEENKIGTYQFVAEPFHVDFNGRLTMGVLGNHLLNCAGFHASDRGFGIATLNEDNYTWVLSRLAIELDEMPYQYEKFSVQTWVENVYRLFTDRNFAVIDKDGKKIGYARSVWAMINLNTRKPADLLALHGGSIVDYICDEPCPIEKPSRIKVTSNQPVATLTAKYSDIDINGHVNSIRYIEHILDLFPIELYQTKRIRRFEMAYVAESYFGDELSFFCDEVSENEFHVEVKKNGSEVVCRSKVIFE : not failed
MTNLELSGSQSYLNDESTANLSSLAGKFLVQFWGVRGLIPTPSSNTSRYGGNTACVEMQVAGKRLIFDGGTGLRILGKAWQHLQQPLEAHLFFTNSQSNRIQGFPFFAPAFIAGNCFHIYGGAASNGASIKQCLCDQMLQPHFPYPLQVMQSELQFYPLTPDSEVKLDDVTIRTALINQTQRSIGYRVTWQEYSVAYVTDLNMSAEQGEREQVLQIIQDVDLLIANATYTPPTSHDHESVDLLWQAAVEMAQKAGVRKLIISHHHPDDHDDFLDQVEKEVQSTFSDALLACEGLALPVFLEHHHHHH : not failed
MEDFNMESDSFEDFWKGEDLSNYSYSSTLPPFLLDAAPCEPESLEINKYFVVIIYALVFLLSLLGNSLVMLVILYSRVGRSVTDVYLLNLALADLLFALTLPIWAASKVNGWIFGTFLCKVVSLLKEVNFYSGILLLACISVDRYLAIVHATRTLTQKRYLVKFICLSIWGLSLLLALPVLLFRRTVYSSNVSPACYEDMGNNTANWRMLLRILPQSFGFIVPLLIMLFCYGFTLRTLFKAHMGQKHRAMRVIFAVVLIFLLCWLPYNLVLLADTLMRTQVIQETCERRNHIDRALDATEILGILHSCLNPLIYAFIGQKFRHGLLKILAIHGLISKDSLPKDSRPSFVGSSSGHTSTTL : not failed

Entry AQRRNEIQVPDLDGYTTLKCDFHMHSVFSDGLVWPTVRVDEAYRDGLDAISLTEHIEYRPHKQDVVSDHNRSFDLCREQAEKLGILLIKGSEITRAMAPGHFNAIFLSDSNPLEQKDYKDAFREAKKQGAFMFWNHPGWDSQQPDTTKWWPEHTALYQEGCMHGIEVANGHLYMPEAIQWCLDKNLTMIGTSDIHQPIQTDYDFEKGEHRTMTFVFAKERSLQGIREALDNRRTAAYFHELLIGREDLLRPFFEKCVKIEEVSRNEQGVTLSITNVTDLVLKLKKTAHDTLLVYFRDMTLKPHTRYTVRIGFKQGIKGGDVNFEVTNFIVAPDKGLKYTISL has what protein production?
not failed

Quick one: protein production for MAKKKNVSVISVEKPTWFPLTDETGAFPVYGAPITIGTAVSIKPDVTTETTPDYGDSVVQDQYVAFGGAEVTLETNGYQNEVLAEITGGKKLKGGVLRSADDIASDGAFAYRRRKSNGKYRYTIFYKGKFALTSDETSTLEGSSVSYTHPEWTGSFVDVPGLGYMYSVDEDDEGVDLEMIKNWFTEVMDPRKENTTAVTGVTLDQTELNLKVGQTATLTPTITPDNASNKKYQFRSESEAIGTVTPIQGKVTAVGEGTTEIVVTTEDGNFTAKCTLNVTTADLEHHHHHH ?
failed

Requested read-out: protein production. Entry: MRPLARLRGRRVVPQRSAGELDAMAAAGAVVAAALRAIRAAAAPGTSSLSLDEIAESVIRESGATPSFLGYHGYPASICASINDRVVHGIPSTAEVLAPGDLVSIDCGAVLDGWHGDAAITFGVGALSDADEALSEATRESLQAGIAAMVVGNRLTDVAHAIETGTRAAELRYGRSFGIVAGYGGHGIGRQMHMDPFLPNEGAPGRGPLLAAGSVLAIEPMLTLGTTKTVVLDDKWTVTTADGSRAAHWEHTVAVTDDGPRILTLG
failed

Recorded protein production for MSWSKVKYFFFDTPEEKEAAQYGYEKEQTDMKKQQDPPEQQDVTFPKAQPKQNVVSIETAKQSSKVVLLEPRTYSEAQGIADHLKGRRAVVINLQRMSTDQAVRIVDFLSGTVYAIGGDIQKIGPKTFMCTPENVDIVGAISELFGEEEETNIKRWLEHHHHHH , please?
not failed

Entry under review: MTDNKIKNEDGKLELIINAAQKRFAHYGLCKTTMNEIASDVGMGKASLYYYFPDKETLFEAVIKKEQNVFFDEMDKILNSGIDATALLKKYVKLRSLHFRHLLNLSKLRSDFFHNTKPVFAKAFESFKQKEVEIVAGIIQYGITTKEFKRGNKHENAEFLVHLLLGVRMVKLKYKEINDFDESDYEDLDKNMCKVAGMFLKEIQTEVASR . Reported protein production?
not failed

May I ask what protein production has been recorded for MSLSKVFTIGEILVEIMASKIGQPFDQPGIWNGPYPSGAPAIFIDQVTRLGVPCGIISCVGNDGFGDINIHRLAADGVDIRGISVLPLEATGSAFVTYHNSGDRDFIFNIKNAACGKLSAQHVDENILKDCTHFHIMGSSLFSFHMVDAVKKAVTIVKANGGVISFDPNIRKEMLDIPEMRDALHFVLELTDIYMPSEGEVLLLSPHSTPERAIAGFLEEGVKEVIVKRGNQGASYYSANEQFHVESYPVEEVDPTGAGDCFGGAWIACRQLGFDAHRALQYANACGALAVTRRGPMEGTSRLMEIETFIQRHDMSIREAAQEGHHHHHH ?
not failed
